I'd be grateful if you could share measured EC50 for these entries.
target-or-system: polypeptide HER2/ECD (human, UniProt P04626 23-646)
assay: ELISA, IgG on immobilized HER2/ECD
Give your result in ng/mL as a bare value.

So what does the record say about EC50 for M41 (antibody, also called antibody M41) MAELDIQMTQTTSSLSASLGDRVTISCRTSQDISNYLNWYQQKPNGTIKLLIYYTSGLYSGVPSRFSGSGSGADYSLTISNVEQEDIATYFCQQVNTLPYTFGGGTKLELKSSGGGGSGGGGGGSSRSSFEVQLQQSGAELVKPGASVKMSCKAFGYTFTTYPIEWMKQNHGKSLEWIGNFHPYNDYTNYNEKFKGKAKLTVEKSSTTVYLELSRLTSDDSAVYYCARRHDGYYGAMDYWGQGTSVTVSSAKTTAPSVTSAAAGAPVPYPDPLEPRAA ? 3.4

Entry M62 (antibody, also called antibody M62) MAELDIQMIQSQKFMSTSVGDRVSVTCKASQNVGTNVAWYQQKPGQSPKALIHSASYRYSGVPDRFTGSGSGTDFTLTISNVQSEDLAEYFCQQYNSYPLTFGAGTKLEIKSSGGGGSGGGGGGSSRSSLEVQLQQSGTELARPGASVKLSCKASGYTFIDYYITWVKQRTGQGLEWIGEIYPGGGNPYYNDNFKGKASLTADKSSNTVYMQLSSLTSEDSAVYFCARSYKYDVSVYWGQGTLVTVSAAKTTPPSVTSAAAGAPVPYPDPLEPRAA please 2

Entry M32 (antibody, also called antibody M32) MAELGIELTQSQKFMSTSVGDRVSITCKASQNVGTAVAWYQQKPGQSPKLLIYSASNRYTGVPDRFTGSGSGTDFTLTISNMQSEDLADYFCQQYSSYPLAFGGGTKLEIKSSGGGGSGGGGGGSSRSSLEVQLVESGAELVRPGALVKLSCKASGFNIKDYFMYWVKQRPEQGLEWVGWIDPENGNTIYDPKFQGKASITADTSSNTAYLQLSSLTSEDTAVYYCTRGYYGSRVLAMDYWGQGTSVTVSSAKTTPPSVTSAAA please 3.1

Entry H32 (antibody, also called antibody H32) DIQMTQSPSSLSASVGDRVTITCKASQNVGTAVAWYQQKPGKAPKLLIYSASNRYTGVPSRFSGSGSGTDFTLTISSLQPEDFATYYCQQYSSYPLAFGQGTKVEIKRGGGGSIEGRSGGGGSEVQLVESGGGLVQPGGSLRLSCKASGFNIKDYFMYWVRQAPGKGLEWVGWIDPENGNTIYDPKFQGRFTISADTSKNTAYLQMNSLRAEDTAVYYCTRGYYGSRVLAMDYWGQGTLVTVSSASAAA please 3.2
